measurement.protocol: In vivo PK study in male Sprague Dawley rats
settings: male, Sprague Dawley, rat, plasma; rats, PO, dosage of 10 mg/kg; read-out: Bioavailability
metric.name: bioavailability (%)
Enter your answer as a number in %; do not include the unit.

Request: Give the measured bioavailability of C[C@@H](CO)n1cnc2c(-c3cccc(F)c3)nc(-c3ccc(Cl)cc3)cc2c1=O [Compound 7] .
Response: 105

----------
# AUC(0-t) annotations
measurement.protocol: In vivo PK study in male Sprague Dawley rats
settings: male, Sprague Dawley, rat, plasma; rats, PO, dosage of 3 mg/kg; read-out: AUCLast Mean
Enter your answer as a number in ng·h/mL; do not include the unit.

Past entries and their recorded results:
chemical.smiles	AUC(0-t), ng·h/mL
Cn1cc(-c2nc(-c3ccc(C(F)(F)F)cn3)cc3c(=O)n(CC(C)(C)O)cnc23)cn1	794
C[C@H](n1cnc2c(-c3cnn(C)c3)nc(-c3ccc(Cl)cc3)cc2c1=O)C(C)(C)O	3250
CC(C)(O)Cn1cnc2c(-c3cccnc3)nc(-c3ccc(C(F)(F)F)cn3)cc2c1=O	11900
C[C@@H](CO)n1cnc2c(-c3cccnc3)nc(-c3ccc(C(F)(F)F)cn3)cc2c1=O	6280
O=c1c2cc(-c3ccc(C(F)(F)F)nc3)nc(-c3cccnc3)c2ncn1[C@@H]1COC[C@H]1O	2270

Request: Give the measured AUC(0-t) of `Cn1cc(-c2nc(-c3ccc(C(F)(F)F)nc3)cc3c(=O)n(CC(C)(C)O)cnc23)cn1` .
Response: 2430

Request: Give the measured AUC(0-t) of `C[C@@H](CO)n1cnc2c(-c3cccc(F)c3)nc(-c3ccc(Cl)cc3)cc2c1=O` .
Response: 2400

----------
# solubility at 2 h annotations
measurement.protocol: Solubility Determination Assay in PBS pH 1.6 and pH 7.4
Format: physicochemical
settings: PBS buffer, aqueous buffer, kinetic from dmso stock, PBS pH 1.6, 25° C., read-out: Aq. Solubility at pH = 1.6

Past entries and their recorded results:
chemical.smiles	experimental.value
Cn1cc(-c2nc(-c3ccc(C(F)(F)F)nc3)cc3c(=O)n([C@@H]4COC[C@H]4O)cnc23)cn1	0.1 to 1 µM
O=c1c2cc(-c3ccc(Cl)cc3)nc(-c3cccnc3)c2ncn1[C@@H]1COC[C@H]1O	≥ 1 µM
O=c1c2cc(-c3ccc(Cl)cc3)nc(-c3cccnc3)c2ncn1[C@H]1COC[C@@H]1O	≥ 1 µM

Please turn your attention to the following entry.
Request: Give the measured solubility at 2 h of `CC(C)(O)Cn1cnc2c(-c3cccc(F)c3)nc(-c3ccc(Cl)cc3)cc2c1=O` .
Response: < 0.1 µM

----------
# fraction unbound at 5.5 h, 1 μM annotations
measurement.protocol: Plasma Protein Binding with Ultracentrifugation Method, human
Type: in vitro ADME
settings: human, plasma; read-out: Plasma Protein Binding PPB (h) % (converted)
Answer with a number only.

chemical.smiles	fraction unbound at 5.5 h, 1 μM
CC(C)(O)Cn1cnc2c(-c3cccnc3)nc(-c3ccc(C(F)(F)F)nc3)cc2c1=O	0.109

Request: Give the measured fraction unbound at 5.5 h, 1 μM of `C[C@@H](CO)n1cnc2c(-c3cccnc3)nc(-c3ccc(C(F)(F)F)cn3)cc2c1=O` .
Response: 0.108

----------
measurement.protocol: Solubility Determination Assay in PBS pH 1.6 and pH 7.4
Type: physicochemical
settings: PBS buffer, aqueous buffer, kinetic from dmso stock, PBS pH 7.4, 25° C., read-out: Aq. Solubility at pH = 7.4
metric.name: solubility at 2 h

molecule	solubility at 2 h
O=c1c2cc(-c3ccc(Cl)cc3)nc(-c3cccnc3)c2ncn1[C@H]1COC[C@@H]1O	≥ 1 µM
Cn1cc(-c2nc(-c3ccc(Cl)cc3)cc3c(=O)n([C@H]4COC[C@@H]4O)cnc23)cn1	0.1 to 1 µM
CC(C)(O)Cn1cnc2c(-c3cccnc3)nc(-c3ccc(C(F)(F)F)cn3)cc2c1=O	≥ 1 µM
O=c1c2cc(-c3ccc(Cl)cc3)nc(-c3cccnc3)c2ncn1[C@@H]1COC[C@@H]1O (stereo in doubt)	≥ 1 µM

Request: Give the measured solubility at 2 h of `Cn1cc(-c2nc(-c3ccc(C(F)(F)F)nc3)cc3c(=O)n([C@H]4COC[C@@H]4O)cnc23)cn1` .
Response: 0.1 to 1 µM

Request: Give the measured solubility at 2 h of `CC(C)(O)Cn1cnc2c(-c3cccnc3)nc(-c3ccc(C(F)(F)F)cc3)cc2c1=O` .
Response: ≥ 1 µM

Request: Give the measured solubility at 2 h of `Cc1ccc(-c2cc3c(=O)n([C@@H](C)CO)cnc3c(-c3cccnc3)n2)cc1` .
Response: ≥ 1 µM

Request: Give the measured solubility at 2 h of `O=c1c2cc(-c3ccc(OC(F)(F)F)cc3)nc(-c3cccnc3)c2ncn1C[C@@H](O)C(F)(F)F` .
Response: < 0.1 µM

Request: Give the measured solubility at 2 h of `CC(C)(O)Cn1cnc2c(-c3cccnc3)nc(-c3ccc(C4CC4)nc3)cc2c1=O` .
Response: ≥ 1 µM

Request: Give the measured solubility at 2 h of `C[C@@H](CO)n1cnc2c(N3CCCCC3)nc(-c3ccc(Cl)cc3)cc2c1=O` .
Response: 0.1 to 1 µM

Request: Give the measured solubility at 2 h of `CC(C)(O)Cn1cnc2c(-c3cnsc3)nc(-c3ccc(C(F)(F)F)nc3)cc2c1=O` .
Response: ≥ 1 µM

Request: Give the measured solubility at 2 h of `O=c1c2cc(-c3ccc(C(F)(F)F)cn3)nc(-c3cccnc3)c2ncn1[C@H]1COC[C@H]1O` .
Response: 0.1 to 1 µM

Request: Give the measured solubility at 2 h of `O=c1c2cc(-c3ccc(C(F)(F)F)cn3)nc(-c3cccnc3)c2ncn1C[C@H](O)C(F)(F)F` .
Response: ≥ 1 µM

Request: Give the measured solubility at 2 h of `Cc1ncc(-c2cc3c(=O)n([C@@H](C)CO)cnc3c(-c3cccnc3)n2)s1` .
Response: ≥ 1 µM

Request: Give the measured solubility at 2 h of `C[C@@H](CO)n1cnc2c(-c3cccc(F)c3)nc(-c3ccc(OC(F)(F)F)cc3)cc2c1=O` .
Response: < 0.1 µM

Request: Give the measured solubility at 2 h of `C[C@@H](CO)n1cnc2c(-c3cccnc3)nc(-c3ccc(C(F)(F)F)cn3)cc2c1=O` .
Response: ≥ 1 µM

Request: Give the measured solubility at 2 h of `Cn1cc(-c2nc(-c3ccc(C(F)(F)F)nc3)cc3c(=O)n([C@@H]4COC[C@H]4O)cnc23)cn1` .
Response: 0.1 to 1 µM
